Test system: Streptococcus pyogenes C203
Test method notes: In vivo protection of mice experimentally infected with S. pyogenes C203
Test context: mice; subcutaneous; doses given 1 and 4 hours post-infection
Would you kindly list ED50, Subcutaneous for each of these compounds?

>>> recorded_result("CCC1OC(=O)CC(O)C(C)C(OC2OC(C)C(O)C(N(C)C)C2O)C(CCOc2ccc(Oc3ccccc3)cc2)CC(C)C(=O)C=CC(C)=CC1COC1OC(C)C(O)C(OC)C1OC (stereo not shown) [Compound 47, 20-DH-20-O-(p-Phenoxyphenyl)desmycosin]")
"> 10 mg/kg × 2"

I have 3 compounds here; please give me ED50, Subcutaneous for each one.
1. CCC1OC(=O)CC(O)C(C)C(OC2OC(C)C(O)C(N(C)C)C2O)C(CCOc2cccc(Oc3ccccc3)c2)CC(C)C(=O)C=CC(C)=CC1COC1OC(C)C(O)C(OC)C1OC (stereo not shown) [Compound 48, 20-DH-20-O-(m-Phenoxyphenyl)desmycosin]
2. CCC1OC(=O)CC(O)C(C)C(OC2OC(C)C(O)C(N(C)C)C2O)C(CCOc2ccc(CN3CCCCCC3)cc2)CC(C)C(=O)C=CC(C)=CC1COC1OC(C)C(O)C(OC)C1OC (stereo not shown) [Compound 42]
3. CCC(=O)OC1C(C)OC(OC2C(CCN3C(=O)c4ccccc4C3=O)CC(C)C(=O)C=CC(C)=CC(COC3OC(C)C(O)C(OC)C3OC)C(CC)OC(=O)CC(O)C2C)C(OC(=O)CC)C1N(C)C (stereo not shown) [Compound 66]

[reply]
> 10 mg/kg × 2
> 25 mg/kg × 2
> 6.3 mg/kg × 2
